Method Notes: JC-1 mitochondrial signal, unstimulated HepG2 cells – cell-based, JC-1 fluorescence, 24 h, 100 nL compound, profiling panel (AID 1167); further: test concentration not given here
Condition: HepG2 mitochondrial potential, higher = more signal
Mark true for reported z-score of 0.8 or greater; mark false for anything smaller.

Consider the following illustrative entries.
INSERT INTO assay_data (compound, answer_label) VALUES
  ('COc1cc(CO)cc(I)c1O[C@H]1C=C(C(=O)NCCO)C[C@@H](NC[C@@H]2CCCO2)[C@@H]1O', 'false'),
  ('C=CCNC(=O)[C@@H]1[C@H]2C(=O)O[C@H](c3ccccc3)[C@H](c3ccccc3)N2[C@H](c2ccc(OCCO)cc2)[C@@]12C(=O)N(C(=O)OCCOC)c1ccc(C#CCC(C(=O)OC)C(=O)OC)cc12', 'false');

stdin: Kindly determine if z-score recorded for CC(C)(C)OC(=O)CC[C@]1(C(N)=O)N=C(c2ccc(OCCCO)cc2)O[C@H]1c1ccccc1 is above or exactly 0.8.
stdout: false

stdin: Kindly determine if z-score recorded for CC1CC/C=C\[C@H]2OC34C=CCN(Cc5ccccc5)C(=O)[C@H]3N(C(C)CO)C(=O)[C@@H]4C2C(=O)O1 (some centres undefined) is above or exactly 0.8.
stdout: false

stdin: Kindly determine if z-score recorded for CCCC[C@H]1C[C@@H]1[C@@H]1N(P(=O)(c2ccccc2)c2ccccc2)C[C@@](O)(c2ccccc2)CC12CC2 is above or exactly 0.8.
stdout: false

stdin: Kindly determine if z-score recorded for CC(C)NC(=O)[C@@H]1c2ccccc2C(=O)N(C(C)C)[C@H]1c1ccc(CO)cc1 is above or exactly 0.8.
stdout: true

stdin: Kindly determine if z-score recorded for O=C1[C@@]23C=C(Br)[C@H](C[C@@H]2COC3)[C@]12CO2 is above or exactly 0.8.
stdout: false

stdin: Kindly determine if z-score recorded for COC(=O)[C@@]1(Cc2ccc(OC)cc2)[C@H]2c3cc(C(=O)N4CCCC4)n(CCc4ccc(O)c(O)c4)c3C[C@H]2CN1C(=O)c1ccccc1 is above or exactly 0.8.
stdout: true
